The measured values listed here are drawn from patent US20210154190A1.

TARGET ENTITY: human SHP2-FL S502P (Homo sapiens, UniProt Q06124, S502P)
Sequence (Q06124 1-593 S502P): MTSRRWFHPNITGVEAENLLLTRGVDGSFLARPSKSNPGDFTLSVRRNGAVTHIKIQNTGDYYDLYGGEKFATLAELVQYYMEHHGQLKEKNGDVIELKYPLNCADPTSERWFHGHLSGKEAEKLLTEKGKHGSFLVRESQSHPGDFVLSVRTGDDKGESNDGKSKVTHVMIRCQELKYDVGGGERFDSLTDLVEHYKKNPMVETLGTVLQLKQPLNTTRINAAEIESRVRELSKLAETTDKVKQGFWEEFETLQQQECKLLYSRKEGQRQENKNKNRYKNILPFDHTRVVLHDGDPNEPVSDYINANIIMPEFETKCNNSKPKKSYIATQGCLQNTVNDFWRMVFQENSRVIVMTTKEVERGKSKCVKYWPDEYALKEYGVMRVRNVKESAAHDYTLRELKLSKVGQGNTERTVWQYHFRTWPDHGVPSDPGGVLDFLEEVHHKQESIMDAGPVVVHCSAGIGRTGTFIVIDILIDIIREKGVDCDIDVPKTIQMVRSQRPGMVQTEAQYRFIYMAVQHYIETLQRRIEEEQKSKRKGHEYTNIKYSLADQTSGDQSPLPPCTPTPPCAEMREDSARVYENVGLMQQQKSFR
PROCEDURE SUMMARY: SHP2 allosteric inhibition assay (DiFMUP), S502P
Type: biochemical
REPORTED CONDITIONS: IC50 (nM), SHP2 S502P 0.5 μM NsCs peptide (Activated), human SHP2-FL S502P in presence of 0.5 μM NsCs peptide (activated)
READOUT TYPE: IC50

(Q) Consider the compound shown here: Nc1nc(N2CCC3(CCC[C@H]3N)CC2)cnc1Sc1ccnc(Cl)c1Cl What is its recorded IC50?
(A) > 10000 nM

---

TARGET ENTITY: human SHP2-FL S502P (Homo sapiens, UniProt Q06124, S502P)
PROCEDURE SUMMARY: SHP2 allosteric inhibition assay (DiFMUP), S502P
Format: biochemical
REPORTED CONDITIONS: pIC50, SHP2 S502P 0.5 μM NsCs peptide (Activated), human SHP2-FL S502P in presence of 0.5 μM NsCs peptide (activated)
READOUT TYPE: IC50

(Q) Consider the compound shown here: Nc1nc(N2CCC3(CCC[C@H]3N)CC2)cnc1Sc1ccnc(Cl)c1Cl [Compound 1] What is its recorded IC50?
(A) > 10 µM
